target: Bile acid receptor (Homo sapiens); test: ATG_IR1_CIS: Attagene CIS-FACTORIAL HepG2 Assay for human Nuclear Receptor Subfamily 1 Group H Member 4 (NR1H4), IR1 submotif (AID 2282946); details: IR1 reporter transcription, actives raise or lower the signal
Activity calls are given as the source filed them. Rule for the calls: active = hit-call score of the fitted dose curve at least 0.9, where 1 is the maximum; inactive = score below 0.9.
Possible outcomes: active, inactive

>>> df
                                    compound     class
 0  CN1CCN(Cc2cc(-c3ccc4[nH]c(=O)oc4c3)co2)[C@@H](c2ccc(F)cc2)C1  inactive
 1                                 COCCOCCOC  inactive
 2            O=C(O)Cc1ccccc1Nc1c(Cl)cccc1Cl  inactive
 3                Oc1ccc2ccccc2c1N=Nc1ccccc1  inactive
 4  FC(F)(F)C(F)(F)C(F)(F)C(F)(F)C(F)(F)C(F)(F)CCI  inactive
 5              C=CCOC(=O)c1ccccc1C(=O)OCC=C    active
 6        NS(=O)(=O)c1cc2c(cc1Cl)NCNS2(=O)=O    active
 7  CC1(C)CC(N=C=O)CC(C)(CN=C=O)C1 (stereo not drawn)  inactive
 8  CC(CO)OC(C)CO (stereo not drawn) (tested in a mixture with another compound)  inactive
 9                   O=c1[nH]cc(F)c(=O)[nH]1  inactive
10                           CCCCN(CCCC)CCCC  inactive
11  Cc1nc(C)nc(N2C[C@@H](C)N(c3ccnc([C@@H](C)O)n3)[C@@H](C)C2)n1  inactive
12                        CCCCCCCCCCCC(=O)OC  inactive

###

assay: APR_HepG2_p53Act_72hr: Apredica 72-hour HepG2 Assay for p53 Activation (AID 2282923); conditions: high-content imaging, actives raise or lower the signal;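 note: average cellular p53 protein immunofluorescence intensity in HepG2 cells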
The source made the active and inactive calls. How the source made its calls: active means hit-call score of the fitted dose curve at least 0.9, where 1 is the maximum; inactive means score below 0.9.
Possible outcomes: true (1) = active, false (0) = inactive

>>> print(df.to_string())
                                    compound      class
 0                       c1cc(-c2ccncc2)ccn1  false (0)
 1                            CCCCCCC(=O)OCC  false (0)
 2                               Cc1ccccc1Cl  false (0)
 3                           CCCCN(CCCC)CCCC  false (0)
 4  Cc1c(C(=O)O)c(O)cc2c1C(=O)c1c(O)c([C@@H]3O[C@H](CO)[C@@H](O)[C@H](O)[C@H]3O)c(O)c(O)c1C2=O  false (0)
 5                           Cc1ccc2ncccc2c1  false (0)
 6                                CN1CCCC1=O  false (0)
 7  Cc1cc(NC(=O)C(=O)O)cc(C)c1Oc1ccc(O)c2c1CCC2  false (0)
 8                                Nc1ccccc1N   true (1)
 9           Nc1ccc(S(=O)(=O)c2ccc(N)cc2)cc1  false (0)
10             Nc1ccc2c(c1)C(=O)c1ccccc1C2=O   true (1)
11                             Cc1cccc(C)c1O  false (0)
12              CCOC(=O)C(C)(C)Oc1ccc(Cl)cc1  false (0)
13                 CCCc1cc(=O)[nH]c(=S)[nH]1  false (0)
14  COc1ccc(S(=O)(=O)N2C(=O)[C@@](c3ccccc3OC)(N3C[C@H](O)C[C@H]3C(=O)N(C)C)c3cc(Cl)ccc32)c(OC)c1   true (1)
15                            COc1ccc(C)cc1N  false (0)
16               NCC1(Cc2noc(=O)[nH]2)CCCCC1  false (0)
17  CN1CCN(Cc2cc(-c3ccc4[nH]c(=O)oc4c3)co2)[C@@H](c2ccc(F)cc2)C1   true (1)
18                      C1CCC(SSC2CCCCC2)CC1   true (1)
19        NS(=O)(=O)c1cc2c(cc1Cl)NCNS2(=O)=O  false (0)
20  CCCCC(CC)COC(=O)CC(C(=O)OCC(CC)CCCC)S(=O)(=O)O (stereo not given)   true (1)
21                        COC(=O)c1ccc(O)cc1  false (0)
22                     CC(=O)Oc1ccccc1C(=O)O  false (0)
23  C[Si]1(C)O[Si](C)(C)O[Si](C)(C)O[Si](C)(C)O1  false (0)
24                               CCCCCCCCCCO  false (0)
25                                 COCCOCCOC  false (0)
26  Oc1ccc2c(c1)OC[C@@H](N1CCC(O)(c3ccc(F)cc3)CC1)[C@H]2O  false (0)
27         O=C(OCCCCCOC(=O)c1ccccc1)c1ccccc1  false (0)
28  CNC(=O)[C@H]1O[C@@H](n2cnc3c(NCc4cc(Cl)ccc4OCc4cc(C)no4)ncnc32)[C@H](O)[C@@H]1N  false (0)
29                            CCCCCCCCCCCCCO  false (0)

###

read-out: Interferon-gamma inducible Protein 10 (IP10), CXCL10 (gene 3627); assay: BSK_hDFCGF_IP10: BioMAP Diversity Plus: hDFCGF Assay for Interferon-gamma inducible Protein 10 (IP10) Biomarker Activity (AID 2283053); conditions: primary human foreskin fibroblasts; actives raise or lower the signal
Calls of active or inactive are those of the source. How the source made its calls: active means hit-call score of the fitted dose curve at least 0.9, where 1 is the maximum; inactive means score below 0.9.
Possible outcomes: t for active, f for inactive

>>> print(df.to_string())
                                   compound  class
0                     CC(=O)Oc1ccccc1C(=O)O      f
1               NCC1(Cc2noc(=O)[nH]2)CCCCC1      f
2  COc1ccc2c(c1)c(CC(=O)O)c(C)n2C(=O)c1ccc(Cl)cc1      f
3           CNCc1cc(F)ccc1Oc1ccc(Cl)c(Cl)c1      f
4  COCCOC[C@H](CC1(C(=O)NC2CCC(C(=O)O)CC2)CCCC1)C(=O)Oc1ccc2c(c1)CCC2 (stereo partly drawn)      f
5  CC(CO)OC(C)CO (stereo not drawn) (tested in a mixture with another compound)      f
6             CCOc1ccc2c(c1)C(C)=CC(C)(C)N2      t
7  O=C(N[C@@H](Cc1ccccc1)[C@@H](O)C(=O)N1C[C@@H](O)[C@@H](O)C1)c1cc2cc(Cl)ccc2[nH]1      f

###

Read-out: CYP2C9 (gene 1559)
Experiment: LTEA_HepaRG_CYP2C9: Life Technologies and Expression Analysis (LTEA) Assay for CYP2C9 using HepaRG (AID 2283484)
Details: mRNA level, 48 h; actives raise or lower the signal
Procedure: LTEA_HepaRG is a cell based, multiplexed-readout assay that uses HepaRG, a human liver cell line, with measurements taken at 48 hours after chemical dosing on a 96-well plate.LTEA_HepaRG_CYP2C9 is one of 102 assay component(s) measured in the LTEA HepaRG cell culture assay. It is a marker of NR mediated metabolism.Data from the assay component LTEA_HepaRG_CYP2C9 was analyzed into 1 endpoint. […]
The source made the active and inactive calls. Rule for the calls: active = hit-call score of the fitted dose curve at least 0.9, where 1 is the maximum; inactive = score below 0.9.
Possible outcomes: 1 (yes) (active), 0 (no) (inactive)

                                    molecule    class
 0  CC(=O)C(C)=CC1C(C)=CCCC1(C)C (stereo not drawn)   0 (no)
 1                                      NCCO   0 (no)
 2  CNC(=O)[C@H]1O[C@@H](n2cnc3c(NCc4cc(Cl)ccc4OCc4cc(C)no4)ncnc32)[C@H](O)[C@@H]1N   0 (no)
 3           Nc1ccc(S(=O)(=O)c2ccc(N)cc2)cc1   0 (no)
 4  Cc1c(C(=O)O)c(O)cc2c1C(=O)c1c(O)c([C@@H]3O[C@H](CO)[C@@H](O)[C@H](O)[C@H]3O)c(O)c(O)c1C2=O   0 (no)
 5                               Cc1ccccc1Cl   0 (no)
 6                Oc1ccc2ccccc2c1N=Nc1ccccc1  1 (yes)
 7                 CC(=O)OC/C=C(\C)CCC=C(C)C   0 (no)
 8                       C=CCc1ccc(O)c(OC)c1   0 (no)
 9              CCCCOC(=O)CCCCCCCCC(=O)OCCCC   0 (no)
10              CCOC(=O)C(C)(C)Oc1ccc(Cl)cc1   0 (no)
11  CC1=C(/C=C/C(C)=C/C=C/C(C)=C/CO)C(C)(C)CCC1   0 (no)
12                            CCCCCCC(=O)OCC   0 (no)
